- Test system: A2058 cells
- Assay procedure: A2058 cell proliferation assay
- Assay type: cell-based
- Experimental conditions: Homo sapiens, 96 hours, CellTiter-Glo
Examples of molecules with documented IC50 follow.
Attribute measured: IC50 (nM)

> print(dat)
                                   molecule  assay.target  readout.unit  value.reported
1  O=c1[nH]c2cc3c(Cl)c(-c4cnn(C(F)F)c4Cl)ccc3nc2[nH]1   A2058 cells            nM             0.9
2  O=c1[nH]c2cc3c(nc2[nH]1)CCN(c1ccc(F)c(C(F)(F)F)n1)C3   A2058 cells            nM             1.9
3  O=c1[nH]c2cc3c(nc2[nH]1)CCC(c1cn(C(F)F)nc1Cl)C3 (stereo not shown)   A2058 cells            nM             8.1
4  O=c1[nH]c2cc3c(nc2[nH]1)CCN(c1ccc(Cl)nc1C(F)(F)F)C3   A2058 cells            nM            31.9

---

- Test system: A2058 cells
- Assay procedure: A2058 cell proliferation assay
- Assay type: cell-based
- Experimental conditions: Homo sapiens, 96 hours, CellTiter-Glo
pIC50: −log10 of the molar value.
Examples of compounds with documented pIC50 follow.
Attribute measured: pIC50

> print(dat)
                                   compound  value.reported
1  O=c1[nH]c2cc3c(nc2[nH]1)CCN(c1nc(C(F)(F)F)ccc1F)C3            8.77
2  O=c1[nH]c2cc3c(nc2[nH]1)CCN(c1cccc(C(F)(F)F)n1)C3            8.92
3  O=c1[nH]c2cc3cc(-c4ccc(Cl)nc4OC(F)F)ccc3nc2[nH]1            8.48
4  O=c1[nH]c2cc3cc(-c4cnn(C(F)F)c4Cl)ccc3nc2[nH]1           10.00
5  O=c1[nH]c2cc3cc(-c4cn(C(F)F)nc4Cl)c(Cl)cc3nc2[nH]1            7.73
6  O=c1[nH]c2cc3c(nc2[nH]1)CC[C@H](c1cnn(C(F)F)c1Cl)C3 (single isomer, unassigned)            9.54
7  N#Cc1ccc(-c2ccc3nc4[nH]c(=O)[nH]c4cc3c2)c(Cl)c1            8.96
8  [2H]C([2H])([2H])c1c(-c2ccc3nc4[nH]c(=O)[nH]c4cc3c2)cnn1C(F)F            9.72

---

Examples of compounds with documented IC50 follow.
- System: A2058 cells
- Assay procedure: A2058 cell proliferation assay
- Format: cell-based
- Experimental conditions: Homo sapiens, 96 hours, CellTiter-Glo
Attribute measured: IC50 (nM)

> print(dat)
                                   compound  assay.target  readout.unit  value.reported
1  [2H]C([2H])([2H])Oc1nc(Cl)ccc1-c1ccc2nc3[nH]c(=O)[nH]c3cc2c1   A2058 cells            nM             7.9
2  Cc1c(-c2ccc3nc4[nH]c(=O)[nH]c4cc3c2)cnn1C(F)F   A2058 cells            nM            0.17
3  O=c1[nH]c2cc3c(nc2[nH]1)CCC(c1cnn(C(F)F)c1Cl)C3 (racemic)   A2058 cells            nM             0.4
4  O=c1[nH]c2cc3cc(-c4ccc(C(F)F)nc4Cl)ccc3nc2[nH]1   A2058 cells            nM             5.2
5  O=c1[nH]c2cc3cc(-c4ncn(C(F)F)c4Cl)ccc3nc2[nH]1   A2058 cells            nM               1
